# Test system: RARa homodimer (NR concentration 270 nM)
# PROTOCOL NOTES: PBM binding z-score (relative to random genomic background probes); higher = stronger binding; sequences stand for … in GC…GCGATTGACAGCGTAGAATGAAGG
I would appreciate it if you labelled entries Satisfied when PBM binding z-score is 0.2 or higher, otherwise Not satisfied.

Solved cases below.
SEQ STRING: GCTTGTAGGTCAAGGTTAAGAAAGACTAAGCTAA
CLASS ASSIGNMENT: Satisfied
--
SEQ STRING: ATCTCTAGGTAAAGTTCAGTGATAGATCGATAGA
CLASS ASSIGNMENT: Satisfied
--
SEQ STRING: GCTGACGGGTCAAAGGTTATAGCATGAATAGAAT
CLASS ASSIGNMENT: Satisfied
--
SEQ STRING: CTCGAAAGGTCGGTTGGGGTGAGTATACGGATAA
CLASS ASSIGNMENT: Satisfied
--
SEQ STRING: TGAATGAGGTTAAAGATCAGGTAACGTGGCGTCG
CLASS ASSIGNMENT: Satisfied
--
SEQ STRING: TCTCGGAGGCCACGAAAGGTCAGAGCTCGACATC
CLASS ASSIGNMENT: Satisfied
--
SEQ STRING: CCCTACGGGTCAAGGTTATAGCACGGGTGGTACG
CLASS ASSIGNMENT: Satisfied
--
SEQ STRING: AATACAGGGTCATCGTAGGCAAGAGTACGCACAG
CLASS ASSIGNMENT: Satisfied

In: Reported PBM binding z-score reaches at least 0.2 for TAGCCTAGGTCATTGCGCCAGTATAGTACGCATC ?
Out: Not satisfied

In: Reported PBM binding z-score reaches at least 0.2 for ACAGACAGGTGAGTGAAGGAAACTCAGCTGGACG ?
Out: Not satisfied

In: Reported PBM binding z-score reaches at least 0.2 for CATACAGGGTCAGCTAGGCGAGAGTAGGGACGGC ?
Out: Satisfied

In: Reported PBM binding z-score reaches at least 0.2 for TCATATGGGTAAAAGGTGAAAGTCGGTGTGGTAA ?
Out: Satisfied

In: Reported PBM binding z-score reaches at least 0.2 for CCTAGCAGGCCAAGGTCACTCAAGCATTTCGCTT ?
Out: Satisfied

In: Reported PBM binding z-score reaches at least 0.2 for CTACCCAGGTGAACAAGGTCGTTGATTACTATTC ?
Out: Satisfied

In: Reported PBM binding z-score reaches at least 0.2 for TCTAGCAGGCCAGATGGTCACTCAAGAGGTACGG ?
Out: Not satisfied

In: Reported PBM binding z-score reaches at least 0.2 for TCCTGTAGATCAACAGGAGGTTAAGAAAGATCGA ?
Out: Not satisfied

---

# Tested on: RARb homodimer (NR concentration 270 nM)
# PROTOCOL NOTES: PBM binding z-score (relative to random genomic background probes); higher = stronger binding; sequences stand for … in GC…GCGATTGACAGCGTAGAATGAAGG
Consider the following sequences; for each one, report its PBM binding z-score.
Numbers only.

Would you mind giving PBM binding z-score for every sequence in the list below?
1. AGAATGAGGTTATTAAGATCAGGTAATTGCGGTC
2. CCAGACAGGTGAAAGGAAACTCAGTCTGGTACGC
3. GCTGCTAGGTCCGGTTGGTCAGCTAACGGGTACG
4. TCTGGTAGATCAAAGGTTAAGAAAGCCGAAGCCT

Out:
1.14
-0.0541
-0.107
1.4

Source: the supplement of paper PMC6555819
